Target: hERG potassium ion channels (Homo sapiens (Human))
Sequence (Q12809 whole entry): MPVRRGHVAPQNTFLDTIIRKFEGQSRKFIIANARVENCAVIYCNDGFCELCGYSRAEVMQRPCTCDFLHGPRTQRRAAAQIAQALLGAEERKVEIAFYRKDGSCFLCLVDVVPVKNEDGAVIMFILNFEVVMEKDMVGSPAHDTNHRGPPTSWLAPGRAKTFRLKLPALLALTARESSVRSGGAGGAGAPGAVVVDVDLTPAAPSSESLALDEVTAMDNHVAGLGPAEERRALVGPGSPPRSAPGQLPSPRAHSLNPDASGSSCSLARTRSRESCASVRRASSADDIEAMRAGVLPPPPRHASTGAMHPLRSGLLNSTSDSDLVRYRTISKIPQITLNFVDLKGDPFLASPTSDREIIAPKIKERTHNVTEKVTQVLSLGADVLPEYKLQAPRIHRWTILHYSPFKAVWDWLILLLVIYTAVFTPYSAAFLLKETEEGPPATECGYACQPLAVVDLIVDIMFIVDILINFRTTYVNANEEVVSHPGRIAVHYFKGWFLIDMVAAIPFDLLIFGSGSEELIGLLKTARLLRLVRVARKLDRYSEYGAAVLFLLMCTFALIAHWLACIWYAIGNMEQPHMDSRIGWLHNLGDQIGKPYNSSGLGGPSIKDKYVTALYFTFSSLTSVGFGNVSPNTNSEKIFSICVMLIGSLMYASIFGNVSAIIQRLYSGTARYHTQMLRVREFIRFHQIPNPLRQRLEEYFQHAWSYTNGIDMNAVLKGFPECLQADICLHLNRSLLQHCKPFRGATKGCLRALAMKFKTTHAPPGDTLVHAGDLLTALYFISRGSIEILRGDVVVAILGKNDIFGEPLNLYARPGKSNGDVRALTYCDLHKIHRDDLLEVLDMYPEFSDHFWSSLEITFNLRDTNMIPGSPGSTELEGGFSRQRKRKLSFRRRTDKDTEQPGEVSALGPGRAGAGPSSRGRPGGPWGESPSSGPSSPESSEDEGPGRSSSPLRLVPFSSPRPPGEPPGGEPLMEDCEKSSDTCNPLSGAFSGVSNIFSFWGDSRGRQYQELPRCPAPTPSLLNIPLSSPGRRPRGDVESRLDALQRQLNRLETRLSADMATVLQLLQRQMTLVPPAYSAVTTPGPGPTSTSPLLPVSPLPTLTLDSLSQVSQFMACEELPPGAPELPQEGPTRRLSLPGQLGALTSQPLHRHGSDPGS
Assay: Experiment 4: hERG potassium ion channel inhibition, automated patch clamp (Qpatch), CHO-hERG cells
Details: highest test concentration 40 μM
Procedure: Experiment 4: hERG Potassium Ion Channel Inhibition Assay Experimental purpose: To test the effects of the test examples on hERG potassium ion channels using an automated patch clamp method. 4.1.1 CHO-hERG cells were cultured in a 175 cm^2 culture flask. When the cell density grew from 60% to 80%, the culture medium was removed. […] Experimental data were analyzed by GraphPad Prism 5.0 software.
Structures can show the parent of a compound that is named as a salt.
QUANTITY: IC50 (µM)
Numbers only, in µM.

Each of the following entries comes with a recorded value; kindly state IC50 for each.
1. CC1(O)CC(n2cc3cc(-c4sc(C(=O)N5CCC[C@@H](N)C5)cc4-c4ccc(C#N)c(F)c4)ccc3n2)C1 (stereo partly shown) [Hydrochloride of compound 86]
2. N#Cc1ccc(-c2cc(C(=O)N3CCC[C@@H](N)C3)sc2-c2ccc3nn(C4COC4)cc3c2)cc1F [Compound 70]

Completion:
1. 21
2. 18.7

----------
Please respond with reported IC50 for every item in the list.
Target: UniProt Q12809
Experiment: Experiment 4: hERG potassium ion channel inhibition, automated patch clamp (Qpatch), CHO-hERG cells
Settings: highest test concentration 40 μM
Where a name gives a salt, the structure may show the parent alone.

{"COMPOUND": "N#Cc1ccc(-c2cc(C(=O)N3CCC[C@@H](N)C3)sc2-c2ccc3c(c2)nnn3[C@H]2COCC[C@@H]2O)cc1F [Hydrochloride of compound 90]", "IC50": "> 40 µM"}
{"COMPOUND": "N#Cc1ccc(-c2cc(C(=O)N3CCC[C@@H](N)C3)sc2-c2ccc3nn([C@H]4COCC[C@@H]4O)cc3c2)cc1F [Hydrochloride of compound 88]", "IC50": "21.9 µM"}
{"COMPOUND": "CN[C@@H]1CCCN(C(=O)c2cc(-c3ccc(C#N)c(F)c3)c(-c3ccc4c(c3)nnn4CC(C)(C)O)s2)C1 [Hydrochloride of compound 121]", "IC50": "20.5 µM"}
{"COMPOUND": "CC(C)(O)Cn1nnc2cc(-c3sc(C(=O)N4CCC[C@@H](N)C4)cc3-c3ccc(C#N)c(F)c3)c(F)c(F)c21 [Hydrochloride of compound 91]", "IC50": "> 40 µM"}

Each of the following entries comes with a recorded value; kindly state IC50 for each.
1. N#Cc1ccc(-c2cc(C(=O)N3CCC[C@@H](N)C3)sc2-c2cnc(N)nc2)cc1F [Hydrochloride of compound 45]
2. CC(C)(CO)n1cc2cc(-c3sc(C(=O)N4CCC[C@@H](N)C4)cc3-c3ccc(C#N)c(F)c3)ccc2n1 [Hydrochloride of compound 87]
3. N#Cc1ccc(-c2cc(C(=O)N3CCC[C@@H](N)C3)sc2-c2ccc3c(c2)CNC3=O)cc1F [Hydrochloride of compound 46]
4. N#Cc1ccc(-c2cc(C(=O)N3CCC[C@@H](N)C3)sc2-c2ccn3cnnc3c2)cc1F

Completion:
["32.6 µM", "13.4 µM", "> 40 µM", "> 40 µM"]

----------
Molecular target: human LSD1 (Homo sapiens (Human), UniProt O60341)
Assay: Experiment 1B: in vitro LSD1 enzyme activity, enzyme-coupled fluorescence (HRP/Amplex Red), H3(1-21)K4me2 peptide 10 μM (Reaction Biology)
Assay type: biochemical
Conditions: histone H3(1-21)K4me2 peptide 10 μM
Structures can show the parent of a compound that is named as a salt.
QUANTITY: pIC50
Give bare numbers, as −log10 of the molar value.

Here are 5 molecules together with their reported answers.
{"MOLECULE": "N#Cc1ccc(-c2cc(C(=O)N3CCCNCC3)sc2-c2ccc(N3CC[C@@H](O)C3)cc2)cc1F [Hydrochloride of compound 117]", "pIC50": 7.72}
{"MOLECULE": "N#Cc1ccc(-c2cc(C(=O)N3CCC[C@@H](N)C3)sc2-c2ccc3nn(CC4(O)CC4)cc3c2)cc1F [Hydrochloride of compound 89]", "pIC50": 7.82}
{"MOLECULE": "N#Cc1ccc(-c2cc(C(=O)N3CCC[C@@H](N)C3)sc2-c2ccc3ncncc3c2)cc1F [Hydrochloride of compound 66]", "pIC50": 7.13}
{"MOLECULE": "N#Cc1ccc(-c2cc(C(=O)N3CCC[C@@H](N)C3)sc2-c2ccc3c(cnn3CC(O)CO)c2)cc1F (some centres unmarked) [Hydrochloride of compound 62]", "pIC50": 7.52}
{"MOLECULE": "COc1ccc(-c2sc(C(=O)N3CCCC(N(C)C)C3)cc2-c2ccc(C#N)c(F)c2)cc1F (centres unmarked) [Hydrochloride of compound 26]", "pIC50": 7.71}

Each of the following entries comes with a recorded value; kindly state pIC50 for each.
1. Cn1nnc2cc(-c3sc(C(=O)N4C5CCC4C(N)C5)cc3-c3ccc(C#N)c(F)c3)ccc21 (centres unmarked) [Compound 14]
2. COc1ccc(-c2sc(C(=O)N3CCCN(CC#N)CC3)cc2-c2ccc(C#N)c(F)c2)cc1F [Compound 40]
3. Cn1c(=O)oc2ccc(-c3sc(C(=O)N4CCC[C@@H](N)C4)cc3-c3ccc(C#N)c(F)c3)cc21 [Hydrochloride of compound 34]
4. CC1(O)CC(n2cc3cc(-c4sc(C(=O)N5CCC[C@@H](N)C5)cc4-c4ccc(C#N)c(F)c4)ccc3n2)C1 (some centres unmarked) [Hydrochloride of compound 86]
5. N#Cc1ccc(-c2cc(C(=O)N3CCC[C@@H](N)C3)sc2-c2ccc(N3CC[C@H](O)C3)cc2)cc1F [Hydrochloride of compound 107]

Completion:
[8.27, 7.02, 7.44, 7.80, 7.82]

----------
Assay: Experiment 3: pharmacokinetic evaluation in CD-1 mice (IV and oral)
Assay type: in vivo
Details: mouse, plasma; female CD-1 mice; PO 2 mg/kg vs IV 1 mg/kg; read-out: Bioavailability F (%)
Structures can show the parent of a compound that is named as a salt.
QUANTITY: bioavailability
Output should be the measured figure followed by the unit it is expressed in.

{"MOLECULE": "COc1ccc(-c2sc(C(=O)N3CCC[C@@H](N)C3)cc2-c2ccc(C#N)c(F)c2)cc1F [Hydrochloride of compound 1]", "RESULT": "47.2%"}
{"MOLECULE": "Cn1cc2cc(-c3sc(C(=O)N4CCC[C@@H](N)C4)cc3-c3ccc(C#N)c(F)c3)ccc2n1 [Hydrochloride of compound 36]", "RESULT": "49.6%"}
{"MOLECULE": "COc1ccc(-c2sc(C(=O)N3CC[C@H](N)C3)cc2-c2ccc(C#N)c(F)c2)cc1F [Hydrochloride of compound 7]", "RESULT": "52.4%"}
{"MOLECULE": "COc1ccc(-c2sc(C(=O)N3CCCNCC3)cc2-c2ccc(C#N)c(F)c2)cc1F [Hydrochloride of compound 6]", "RESULT": "64%"}

Next:
Prompt: State the recorded bioavailability for this entry: COc1ccc(-c2sc(C(=O)N3C4CCC3C(N)C4)cc2-c2ccc(C#N)c(F)c2)cc1F (racemic) [Hydrochloride of compound 2]
Completion: 47.7%

----------
Please respond with reported Cmax for every item in the list.
Assay: Experiment 3: pharmacokinetic evaluation in CD-1 mice (IV and oral)
Assay type: in vivo
Conditions: mouse, plasma; female CD-1 mice; single dose, oral 2 mg/kg; read-out: Peak concentration Cmax
Counter-ions that a name gives are not always drawn.
One number for each entry, in nM.

Here are 4 compounds together with their reported answers.
{"COMPOUND": "COc1ccc(-c2sc(C(=O)N3C4CCC3C(N)C4)cc2-c2ccc(C#N)c(F)c2)cc1F (racemic) [Hydrochloride of compound 2]", "QUANTITY": "Cmax", "NUMERIC_VALUE": 209}
{"COMPOUND": "Cn1cc2cc(-c3sc(C(=O)N4CCC[C@@H](N)C4)cc3-c3ccc(C#N)c(F)c3)ccc2n1 [Hydrochloride of compound 36]", "QUANTITY": "Cmax", "NUMERIC_VALUE": 224}
{"COMPOUND": "COc1ccc(-c2sc(C(=O)N3CCC[C@@H](N)C3)cc2-c2ccc(C#N)c(F)c2)cc1F [Hydrochloride of compound 1]", "QUANTITY": "Cmax", "NUMERIC_VALUE": 245}
{"COMPOUND": "COc1ccc(-c2sc(C(=O)N3CCCNCC3)cc2-c2ccc(C#N)c(F)c2)cc1F [Hydrochloride of compound 6]", "QUANTITY": "Cmax", "NUMERIC_VALUE": 222}

Next:
Prompt: State the recorded Cmax for this entry: COc1ccc(-c2sc(C(=O)N3CC[C@H](N)C3)cc2-c2ccc(C#N)c(F)c2)cc1F [Hydrochloride of compound 7]
Completion: 176

----------
Please respond with reported log10(IC50) for every item in the list.
Target: human LSD1 (Homo sapiens (Human), UniProt O60341)
Experiment: Experiment 1B: in vitro LSD1 enzyme activity, enzyme-coupled fluorescence (HRP/Amplex Red), H3(1-21)K4me2 peptide 10 μM (Reaction Biology)
Type: biochemical
Settings: histone H3(1-21)K4me2 peptide 10 μM
Where a name gives a salt, the structure may show the parent alone.
log10 IC50, µM

{"MOLECULE": "COC1CC(n2cc3cc(-c4sc(C(=O)N5CCC[C@@H](N)C5)cc4-c4ccc(C#N)c(F)c4)ccc3n2)C1 (stereo partly drawn) [Hydrochloride of compound 80]", "MEASURED_ON": "human LSD1 (Homo sapiens (Human), UniProt O60341)", "NUMERIC_VALUE": -1.69}

Each of the following entries comes with a recorded value; kindly state log10(IC50) for each.
1. CC(C)(O)Cn1cc2cc(-c3sc(C(=O)N4CCC[C@@H](N)C4)cc3-c3ccc(C#N)c(F)c3)ccc2n1
2. CN1Cc2ccc(-c3sc(C(=O)N4CCC[C@@H](N)C4)cc3-c3ccc(C#N)c(F)c3)cc2C1=O [Hydrochloride of compound 35]
3. N#Cc1ccc(-c2cc(C(=O)N3CCC[C@@H](N)C3)sc2-c2ccc(OCC(=O)O)c(F)c2)cc1F [Hydrochloride of compound 30]
4. COc1ccc(-c2sc(C(=O)N3CCC[C@H](N)C3)cc2-c2ccc(C#N)c(F)c2)cc1F [Hydrochloride of compound 18]
5. CN[C@@H]1CCCN(C(=O)c2cc(-c3ccc(C#N)c(F)c3)c(-c3ccc(N4CC[C@@H](O)C4)cc3)s2)C1 [Hydrochloride of compound 109]

Completion:
1: -1.69; 2: -1.61; 3: -0.91; 4: -2.18; 5: -1.97
